assay: soluble on expression in E. coli; label from the status in PepcDB or PDB records
measured property: soluble on expression in E. coli

Some solved entries appear below for comparison.
KIWLFFIEQANNEIRIDLRSNGINVRDIAIKYGGGGHNNASGAIITNKKQISDVVSD : soluble
MNRAEKREFVTWLNEAFRKSGSVIVAHYSGLTVSQMNDLRSKMSEAGGAIKVAKNRLAKIALQGTESESIVDLFSGQTLIAYSEDPITAPKVAVDFAKTNDKFVILGGSMGATSLSVDAVKSLASLPSLNELRAKLVGMISTPATRIAQVVNAPAGQVVRVIGAYAQEGKAA : not soluble
SQGRKPSSELISYQRLHPNEFEIKNLGVLPQSHVIRMERVRFADDIPVAYEITSIPEKIIRGFKESEITEHFFKTLTDNGYEIGKSQQTISASLANSSLAKHLKVKTGDALLSLTQISFLQDGQAFEYVRSYYVGDRFE : not soluble
MISILHVAARVLELRPSCDKMKLYKLCYFSQGWHLAWTGRPLFNEELQAWKYGAVSPTLRQASGLRADDDRLVTQIWSGDSSQLIDYERSVVDTVVSFYGDLESFHLSDLSHGFAWSTVRGNLPPDASCSDVIPHSLIRREFVENAWGEAPTPNAPERLPSMALDALEQAADDVAAENAETLRLLAFI : not soluble
SNAMILIDGKSLSKDLKERLATQVQEYKHHTAITPKLVAIIVGNDPASKTYVASKEKACAQVGIDSQVITLPEHTTESELLELIDQLNNDSSVHAILVQLPLPAHINKNNVIYSIKPEKDVDGFHPTNVGRLQLRDKKCLESCTPKGIMTMLREYGIKTEGAYAVVVGASNVVGKPVSQLLLNAKATVTTCHRFTTDLKSHTTKADILIVAVGKPNFITADMVKEGAVVIDVGINHVDGKIVGDVDFAAVKDKVAAITPVPGGVGPMTITELLYNTFQCAQELNR : soluble
QKVPAPVDGERIIMELSEADVECTIKIEAEDGYANDIWADLNGNGKYDSGERLDSGEFRDVEFRQTKAIVYGKMAKFLFRGSSAGD : not soluble
MPNLPQKAQQRQPQEHKSRHKATDDTEAPKQQQQQQQQQQSFDVATNANGSSLPASRVKNPEEPGGKSPLVPMRQHHSKVTRPPPPPTLFLENSLLQRQFANPISYLGGPRLQPRSNRTSIDSILSLDLEHHHHHH : not soluble
MGSDKIHHHHHHMTKITVLSGKGGTGKTTVSVNMAKALSESYRVQLLDADVEEPNDHIFFNVDVSFEEPVHLMIPVVDNSVCIRCGECASTCQFGAISVFPSGTFVFESLCHGCGACSIMCPVNAISERPKEIGKIRFGTADGNISFGMGILNIGERTGVPVIRKLKKHIDEKADVVIVDAPPGTSCPVVESLRNTDFALLVTEPTAFGLHDLKLAVELTKEMGIPSGIVVNRYIPGNTIIEEFADEEGIPVLLKIPFKREIASLCAEGKLIVEAFQDMKKDFLELFEKIEVMVR : not soluble

From here, focus on the item given below.
Ask: Can you look up the measured soluble on expression in E. coli of `MASRRELKKNVNYIAGELFTECLINSMFIPGTDKAKADELMAEVLRMQDEFVSRISHTEPGNVKGFYKKFRVDFNAKVNEIIEAIGKLN` for me?
Result: not soluble

---

assay: soluble on expression in E. coli; label from the status in PepcDB or PDB records
measured property: soluble on expression in E. coli

MSLVPARVFSCTILVDFQTEDQDTMCNLLRVQWTITPRTAPQPWLACNGCGDLRAFQASDKIRLNANGRKLDAWLIYRCLICDKSWNRPIFERQNVCDISPPVLEALQCNDPQWIRAETFNLEALRRKSQRIDEFPDFDIEKRIRDEPTDWAAAEIDLTVPFPASIRLDRLLASELGLSRSMLQKLHDGGQIRAQSDLLRRRLRNGTRIVIECGDGLDRERFWKPAVRGLEGHHHHHH : not soluble
ISGFYMSIMRDITEKRSMELQLFKSEERFREIFENAMDAIIIWSNDGRIVKANQSACKIFELPMNLLLKRKLCDFLVDSQQKYSITKRKYAKYGEIREELLFQMGNGQFKELEFTSKRTILEN : not soluble

---

assay: soluble on expression in E. coli; label from the status in PepcDB or PDB records
measured property: soluble on expression in E. coli

MVAISEIKSTVDVTAANCLMLLSRVGQENVDGGDQKRVFTCKTCLKQFHSFQALGGHRASHKKPNNDALSSGLMKKVKTSSHPCPICGVEFPMGQALGGHMRRHRNESGAAGGALVTRALLPEPTVTTLKKSSSGKRVACLDLSLGMVDNLNLKLELGRTVY : not soluble
MGSDKIHHHHHHMKNLFLYCRAGYEKDCAAEIQQRAAELGIGGFVKANRDDAYVVFQGFSPDDGDRLAKELPLDSLIFARQMFACGDLLDDFSPEDRVTPIAESLTEVERAGELRVETPDTNEAKELSAFCRKFTVPLRQALKKRGVLLDKESSRRPIVHVCFVAPNKAFTGYSLSNNSSPHFMGIPRLKFPADAPSRSTLKLDEAFIHFIPREEHETRLRSGLNAVDLGACPGGWTYQLVRRGMMVHAIDNGPMNHDLMETGQVTHHRADGFKFEPARRNIYWLVCDMVEKPARVAELMEYWAIQGWFKEAIFNLKLPMKSRYKEVSQILANMHAILKENGIHEFHLACKHLYHDRDEVTVHLWLRPSSPWI : not soluble
MGSDKIHHHHHHMPGLPRASGSRFSRRLWSNLTWSGLLSMAVMPRHTSIARPPHGMMDPSGTTVWSYDTQGRIIGKTQVVDGASLVTSYVYDGDGRLASLTYPSGEVINYSWSNGQLTGIFRGTSLIASGITCHPFGPVKSWTLDNGQNIVRNFDLDGRITSYSLGSLAYDAASRITGISRGGISILGNSKTYGYDATDRLISFSDGTSAETYAYDASGNRTGQTINGMAYTYSVSYASNRLDAMAGPGSSLHYSYDANGSLVNDGQRSFGYDASGRLSEAVGLASYSFNGLGQRVKKNAGTVIMFVFDEGGQLIGEYGAAGNPIQETVWLDDVPLAVLRYGTTYYIHTDHLNTPPADS : not soluble

---

assay: soluble on expression in E. coli; label from the status in PepcDB or PDB records
measured property: soluble on expression in E. coli

Some solved entries appear below for comparison.
SLSEKVIDMYKSENCGCCSLWGKAMEKDGFEVRTHIMNDQALSALKEKHAIPAGLRSCHTAVAGNLIIEGHVPATTIHKAMQSGSGIYGLATPGMPAGSPGMEMGARKEAYDVIAFSPDGSKKVFQRIE : soluble
MKIIARNKKALFDYSIIERFEAGIVLKGSEVVALRAGRANLKDSFVRIIKNEIFLLNSHISLLHTTHSFYKHEERGARKLLMHRKQIDKLLGKVSIEGYTIVALDLYFNTKNKVKATLALAKGKNLHDKRETLKKKQADLEARAAMKNYK : not soluble
MSLAQIDSLFVTRLYRAALSEHGPKIDPQEMEASCIAIAEDDEAGQDWCEENGYPGYTSYASLTDLPWRFPIFADLVKSLDAHVAAFAQDLELNLDGRDLKLEDLWINILPEGGTHASHIHPHSVISGTTYVSMPDGASALKLEDPRHAMMMAHPPRTKDCRRELRSFVYEAPNVGDVLLWESFIRHEVPMNMAEDERISVSFNYAWAEGHHHHHH : soluble
MIITTTPTVENRQIIEYKGLVFGEVVAGANIIRDFFASITDMIGGRSGVYEDKLNVARQEALVELQKQARNIGANAVIGVSIQYQSMGKKDMFIIVATGTAVVIGLEHHHHHH : not soluble
SISTARVPADKPVRIAFSLNDASDDTPPEDSIPLVFPELDQQLQPLPPCHDSEESMEVFKQHCQIAEEYHEVKKEITLLEQRKKELIAKLDQAEKEKVDAAELVREFEALTEENRTLRLAQSQCVEQLEKLRIQYQKRQGSS : soluble
MKATLFVREFLLNPRTIGAILPSSDYLAEKMMASVCFEQAKYIIEYGPGTGVFTDKILRYRHPDTVVMIIEHNREFFCILNEKYQDEKNVIIINGSAEHIETYVKEHNIPFVDYIISGLPFASLPLHVSNAILNKARYLLGVKGKFITFQYTQTKVRLFTQFFNQMTVERVYRNLPPAFVFSCYNEKLEHHHHHH : soluble
MIMANILFIDNFDSFTYNLVDQFRSLGHVVTIYRNNLSADAIEQALLQLDNPVVVLSPGPGAPSETGCMPELLQRLKGKVPMIGICLGHQAIVEAYGGVVAGAGEIIHGKVSMMEHQNHAIYRGLPSPLAIARYHSLVATQVPSALTVTAEVNGLVMSVVNEADKVCGFQFHPESIMTTHGATLLANAIDWALSSTPAQTQFA : not soluble
SNAGQLCCLREDGERCGRAAGNASFSKRIQKSISQKKVKIELDKSARHLYICDYHKNLIQSVRNRRKRKGS : soluble

From here, focus on the item given below.
Ask: Can you look up the measured soluble on expression in E. coli of `MSICLIAEEGADSGALSSLAERWGLVSDPNAVMALVLTTERLELRKQDEPKLGAIFVDFVAGPMAHRRRFGGGRGEAVAKAVGIKKDYLPDVVDATAGLGRDAFVLAALGCHVRMVERNPVVAALLDDGLKRGYQDAEIGPWLRERLTLLHASSMTALRDITPPPDVVYLDPMFPHKQKSALVKKEMRVFQSLVGADDDADALLEPARALAKKRVVVKRPDYAPPLAGVPAQSMLETKSHRFDFYLPVLEHHHHHH` for me?
Result: soluble
